System: PPARa:RXRa (NR concentration 270 nM, RXRa partner concentration 90 nM)
Experiment: PBM binding z-score (relative to random genomic background probes); higher = stronger binding; sequences stand for … in GC…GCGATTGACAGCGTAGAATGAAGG
# PBM binding z-score values compiled below
Reply: number alone, nothing else.

{"ordered_residues": "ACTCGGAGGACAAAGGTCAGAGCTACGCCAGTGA", "assay_result": 4.93}
{"ordered_residues": "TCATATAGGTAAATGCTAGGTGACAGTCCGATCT", "assay_result": 1.12}
{"ordered_residues": "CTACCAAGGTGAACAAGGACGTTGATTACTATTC", "assay_result": 0.963}
{"ordered_residues": "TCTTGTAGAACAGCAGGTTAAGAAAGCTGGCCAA", "assay_result": 0.675}
{"ordered_residues": "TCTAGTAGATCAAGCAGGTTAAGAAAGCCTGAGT", "assay_result": 0.517}
{"ordered_residues": "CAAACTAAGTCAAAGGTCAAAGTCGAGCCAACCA", "assay_result": 6.84}
{"ordered_residues": "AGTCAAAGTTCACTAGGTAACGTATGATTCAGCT", "assay_result": 4.64}
{"ordered_residues": "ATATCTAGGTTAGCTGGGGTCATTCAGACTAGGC", "assay_result": 5.23}

# input Fill in the blank: the reported PBM binding z-score of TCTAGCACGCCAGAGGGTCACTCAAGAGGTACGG is ____.
# output 2.01

# input Fill in the blank: the reported PBM binding z-score of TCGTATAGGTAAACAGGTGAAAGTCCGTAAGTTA is ____.
# output 1.95

# input Fill in the blank: the reported PBM binding z-score of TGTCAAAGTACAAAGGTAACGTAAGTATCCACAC is ____.
# output 1.67

# input Fill in the blank: the reported PBM binding z-score of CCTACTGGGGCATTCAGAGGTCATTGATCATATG is ____.
# output 4.07

# input Fill in the blank: the reported PBM binding z-score of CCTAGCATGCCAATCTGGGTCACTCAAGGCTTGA is ____.
# output 3.3

# input Fill in the blank: the reported PBM binding z-score of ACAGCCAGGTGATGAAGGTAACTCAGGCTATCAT is ____.
# output 0.0268

# input Fill in the blank: the reported PBM binding z-score of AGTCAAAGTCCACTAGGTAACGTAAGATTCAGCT is ____.
# output 0.0628

# input Fill in the blank: the reported PBM binding z-score of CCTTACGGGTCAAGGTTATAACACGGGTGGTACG is ____.
# output 5.22

# input Fill in the blank: the reported PBM binding z-score of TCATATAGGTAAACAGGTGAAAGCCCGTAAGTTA is ____.
# output 2.4

# input Fill in the blank: the reported PBM binding z-score of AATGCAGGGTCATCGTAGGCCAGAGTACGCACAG is ____.
# output 5.97

# input Fill in the blank: the reported PBM binding z-score of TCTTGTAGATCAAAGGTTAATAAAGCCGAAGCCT is ____.
# output 4.63

# input Fill in the blank: the reported PBM binding z-score of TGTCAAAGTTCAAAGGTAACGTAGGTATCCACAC is ____.
# output 5.79

# input Fill in the blank: the reported PBM binding z-score of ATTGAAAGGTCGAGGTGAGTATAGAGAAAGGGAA is ____.
# output 4.7

# input Fill in the blank: the reported PBM binding z-score of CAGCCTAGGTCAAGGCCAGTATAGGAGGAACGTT is ____.
# output 3.45

# input Fill in the blank: the reported PBM binding z-score of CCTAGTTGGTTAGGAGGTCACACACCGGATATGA is ____.
# output 4.02
